Here, each record is paired with measured IC50 data.
# systemName: ALK6 (Homo sapiens, UniProt O00238)
# Sequence (O00238 14-502): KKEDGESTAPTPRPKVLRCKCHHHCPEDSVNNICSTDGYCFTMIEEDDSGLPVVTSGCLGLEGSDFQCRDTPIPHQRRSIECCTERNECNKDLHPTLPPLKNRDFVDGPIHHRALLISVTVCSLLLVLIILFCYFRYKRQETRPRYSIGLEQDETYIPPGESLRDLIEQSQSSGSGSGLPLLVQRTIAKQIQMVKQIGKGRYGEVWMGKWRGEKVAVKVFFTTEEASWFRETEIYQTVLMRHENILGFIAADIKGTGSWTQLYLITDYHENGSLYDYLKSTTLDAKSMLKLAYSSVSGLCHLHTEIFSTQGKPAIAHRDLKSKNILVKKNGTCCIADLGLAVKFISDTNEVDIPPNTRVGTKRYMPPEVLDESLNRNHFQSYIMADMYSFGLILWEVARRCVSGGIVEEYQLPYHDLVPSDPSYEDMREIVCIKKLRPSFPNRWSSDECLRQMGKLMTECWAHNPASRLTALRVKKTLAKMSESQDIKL
# procedureSummary: TR-FRET enzymatic ALK kinase assay, ALK6

| molecule | readoutLabel | resultValue |
| --- | --- | --- |
| CN(C)CCOc1ccc(-c2cnc3c(-c4ccc(S(N)(=O)=O)c5ccccc45)cnn3c2)cc1 | IC50 | > 10 µM |
| CC(O)c1ccc(-c2cnn3cc(-c4ccc(N5[C@H](C)CNC[C@@H]5C)cc4)cnc23)c2ccccc12 (stereo partly drawn) | IC50 | 0.294 µM |
| C[C@@H]1CNC[C@H](C)N1c1ccc(-c2cnc3c(-c4cccc5c(C(N)=O)cccc45)cnn3c2)cc1 | IC50 | 0.034 µM |

Query: Recorded IC50 of C[C@@H]1CNC[C@H](C)N1c1ccc(-c2cnc3c(-c4cccc(C(C)(C)O)c4)cnn3c2)cc1 , please.
Response: 4.3 µM
